Recorded pKi, one value per entry.
- TARGET_DESC: Plasmepsin II (Plasmodium falciparum)
- Sequence (P46925 whole entry): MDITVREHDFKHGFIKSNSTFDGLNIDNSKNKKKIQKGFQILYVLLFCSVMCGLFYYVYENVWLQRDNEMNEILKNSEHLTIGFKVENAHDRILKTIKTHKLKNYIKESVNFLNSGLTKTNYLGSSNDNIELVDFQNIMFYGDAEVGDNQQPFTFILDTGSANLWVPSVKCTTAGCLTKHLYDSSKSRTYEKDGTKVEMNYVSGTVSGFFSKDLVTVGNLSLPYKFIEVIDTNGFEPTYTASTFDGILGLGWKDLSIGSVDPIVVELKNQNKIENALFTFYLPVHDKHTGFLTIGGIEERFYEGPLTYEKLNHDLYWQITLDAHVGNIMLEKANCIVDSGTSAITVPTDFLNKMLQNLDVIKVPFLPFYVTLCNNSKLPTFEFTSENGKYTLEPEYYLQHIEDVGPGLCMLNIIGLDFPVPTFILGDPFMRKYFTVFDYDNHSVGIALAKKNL
- TEST_METHOD_NOTES: Inhibitory activity against plasmepsin-2
pKi: −log10 of the molar value.

>  <COMPOUND_STRING>
Cc1ccc(C)c(OCC(=O)N[C@@H](Cc2ccccc2)[C@@H](O)CN(CCc2ccc3c(c2)OCO3)C(=O)CCN2C(=O)c3ccccc3C2=O)c1

>  <pKi>
6.52

$$$$
>  <COMPOUND_STRING>
COc1ccc(CCN(C[C@H](O)[C@H](Cc2ccccc2)NC(=O)COc2cccc(Cl)c2)C(=O)C2CCNCC2)cc1

>  <pKi>
8.37

$$$$
>  <COMPOUND_STRING>
COc1ccc(CCN(C[C@H](O)[C@H](Cc2ccccc2)NC(=O)c2cc(OC)c(OCc3ccccc3)c(OC)c2)C(=O)C2CCNCC2)cc1

>  <pKi>
8.05

$$$$
>  <COMPOUND_STRING>
COc1cc(C(=O)N[C@@H](Cc2ccccc2)[C@@H](O)CN(CCc2ccc3c(c2)OCO3)C(=O)C2CCN(C(C)=O)CC2)cc(OC)c1OCc1ccccc1

>  <pKi>
8.32

$$$$
>  <COMPOUND_STRING>
COc1cc(C(=O)N[C@@H](Cc2ccccc2)[C@@H](O)CN(CCc2ccc3c(c2)OCO3)C(=O)CCN2C(=O)c3ccccc3C2=O)cc(OC)c1OCc1ccccc1

>  <pKi>
7.00

$$$$
>  <COMPOUND_STRING>
COc1ccc(CCN(C[C@H](O)[C@H](Cc2ccccc2)NC(=O)COc2cccc(Cl)c2)C(=O)C2CCN(C)CC2)cc1

>  <pKi>
8.70

$$$$
>  <COMPOUND_STRING>
CC(=O)N1CCC(C(=O)N(CCc2ccc3c(c2)OCO3)C[C@H](O)[C@H](Cc2ccccc2)NC(=O)COc2cccc(Cl)c2)CC1

>  <pKi>
8.40

$$$$

###

As an illustration, consider measured Ki for compounds on Cathepsin D (Homo sapiens).
Sequence (P07339 65-162 limits assumed): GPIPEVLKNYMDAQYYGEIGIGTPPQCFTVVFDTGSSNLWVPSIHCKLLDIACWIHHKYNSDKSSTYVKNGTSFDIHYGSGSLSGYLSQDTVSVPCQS
Sequence (P07339 169-412 limits assumed): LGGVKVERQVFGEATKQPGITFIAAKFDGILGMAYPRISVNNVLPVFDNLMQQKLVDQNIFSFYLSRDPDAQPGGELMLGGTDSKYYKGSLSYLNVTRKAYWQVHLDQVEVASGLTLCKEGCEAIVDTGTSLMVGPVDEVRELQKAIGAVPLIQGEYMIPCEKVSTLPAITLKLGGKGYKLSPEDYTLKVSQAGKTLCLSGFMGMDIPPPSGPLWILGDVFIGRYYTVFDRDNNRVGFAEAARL
READOUT_KIND: Ki

>  <COMPOUND_STRING>
COc1cc(C(=O)N[C@@H](Cc2ccccc2)[C@@H](O)CN(CCc2ccc3c(c2)OCO3)C(=O)C2CCN(C(C)=O)CC2)cc(OC)c1OCc1ccccc1

>  <TARGET_DESC>
Cathepsin D (Homo sapiens)

>  <READOUT_KIND>
Ki

>  <MEASURED>
4.3 nM

$$$$
>  <COMPOUND_STRING>
CC(=O)N1CCC(C(=O)N(CCc2ccc3c(c2)OCO3)C[C@H](O)[C@H](Cc2ccccc2)NC(=O)CNc2cccc(Cl)c2)CC1

>  <TARGET_DESC>
Cathepsin D (Homo sapiens)

>  <READOUT_KIND>
Ki

>  <MEASURED>
1.3 nM

$$$$
>  <COMPOUND_STRING>
COc1ccc(CCN(C[C@H](O)[C@H](Cc2ccccc2)NC(=O)COc2cccc(Cl)c2)C(=O)C2CCNCC2)cc1

>  <TARGET_DESC>
Cathepsin D (Homo sapiens)

>  <READOUT_KIND>
Ki

>  <MEASURED>
63 nM

$$$$
>  <COMPOUND_STRING>
COc1ccc(CCN(C[C@H](O)[C@H](Cc2ccccc2)NC(=O)c2cc(OC)c(OCc3ccccc3)c(OC)c2)C(=O)C2CCN(C)CC2)cc1

>  <TARGET_DESC>
Cathepsin D (Homo sapiens)

>  <READOUT_KIND>
Ki

>  <MEASURED>
58 nM

$$$$
